Documented Na across a set of molecules
Organism: Rattus norvegicus
assay-summary: Open TG-GATES - Regimen: Daily Repeat
Format: toxicity, organism-based, Sprague-Dawley
Design: regimen Daily Repeat, gender Male, age 6 weeks
experimental-context: in vivo, po, 300 mg/kg, […], tissue Plasma, route gavage, dose level Middle, time 28 day
Please report the result as a number followed by the unit.

Examples with their reported Na follow.
[
  {
    "molecule": "CCOc1ccc(NC(C)=O)cc1 [PHENACETIN]",
    "reported-measurement": "145 meq/L"
  },
  {
    "molecule": "CNC(=C[N+](=O)[O-])NCCSCc1ccc(CN(C)C)o1 [RANITIDINE]",
    "reported-measurement": "141.2 meq/L"
  }
]

What value of measured Na is listed for CN/C(=N/CCSCc1nc[nH]c1C)NC#N [CIMETIDINE] ?
140.2 meq/L

---

Organism: Rattus norvegicus
assay-summary: Open TG-GATES - Regimen: Daily Repeat
Format: toxicity, organism-based, Sprague-Dawley
Design: regimen Daily Repeat, gender Male, age 6 weeks
experimental-context: in vivo, po, 300 mg/kg, 72 h, tissue Plasma, route gavage, dose level Middle, time 3 day
Recorded IP values for a group of compounds are listed next.
The reply should be a number in mg/dL, with the unit left off.

Query: IP; subject: CCOc1ccc(NC(C)=O)cc1
6.9

# get_value(readout='IP', item= O=C(OC[C@H]1O[C@@H](OC(=O)c2cc(O)c(O)c(OC(=O)c3cc(O)c(O)c(O)c3)c2)[C@H](OC(=O)c2cc(O)c(O)c(OC(=O)c3cc(O)c(O)c(O)c3)c2)[C@@H](OC(=O)c2cc(O)c(O)c(OC(=O)c3cc(O)c(O)c(O)c3)c2)[C@@H]1OC(=O)c1cc(O)c(O)c(OC(=O)c2cc(O)c(O)c(O)c2)c1)c1cc(O)c(O)c(OC(=O)c2cc(O)c(O)c(O)c2)c1 )
8.7

Requested field: IP. Item: CNC(=C[N+](=O)[O-])NCCSCc1ccc(CN(C)C)o1
7.2

# get_value(readout='IP', item= CN/C(=N/CCSCc1nc[nH]c1C)NC#N )
7.2

So what's the measured IP for this one? COC(=O)C1=C(C)NC(C)=C(C(=O)OC)C1c1ccccc1[N+](=O)[O-]
7.1

Suppose we examine the compound Cc1nnc2n1-c1ccc(Cl)cc1C(c1ccccc1Cl)=NC2 ; what IP value has been reported?
8.2

---

Species on record: Rattus norvegicus
assay-summary: Open TG-GATES - Regimen: Single
Format: toxicity, organism-based, Sprague-Dawley
Set-up: regimen Single, gender Male, age 6 weeks
experimental-context: in vivo, po, 100 mg/kg, 9 h, tissue Kidney, route gavage, dose level Low
reported-endpoint: KIDNEY_R (g)
Numeric only. Scale: g

The following compounds have reported results that may help.
[
  {
    "compound": "CNC(=C[N+](=O)[O-])NCCSCc1ccc(CN(C)C)o1 [RANITIDINE]",
    "unit-info": "g",
    "reported-measurement": 1
  },
  {
    "compound": "Cc1nnc2n1-c1ccc(Cl)cc1C(c1ccccc1Cl)=NC2 [TRIAZOLAM]",
    "unit-info": "g",
    "reported-measurement": 0.9
  }
]

Please look at the following compound next.
Item under review: CN/C(=N/CCSCc1nc[nH]c1C)NC#N [CIMETIDINE] . Reported KIDNEY_R?
1
